# Protocol: Cmax in human plasma expressing CYP2C9*1/*1 polymorphism at 80 mg by LC/MS/MS analysis
# Assay type: ADME, organism-based
# Parameters: dose 80 mg
Reported property: Cmax (ng/mL)

INSERT INTO measurements (mol_smiles, assay_result) VALUES
  ('CCCc1nc2c(C)cc(-c3nc4ccccc4n3C)cc2n1Cc1ccc(-c2ccccc2C(=O)O)cc1', 446);

###

# Protocol: Cmax in human plasma expressing CYP2C9*1/*1 polymorphism at 25 to 32 mg by LC/MS/MS analysis
# Assay type: ADME, organism-based
Reported property: Cmax (µg/mL)

INSERT INTO assay_data (mol_smiles, assay_result) VALUES
  ('CCOc1nc2cccc(C(=O)O)c2n1Cc1ccc(-c2ccccc2-c2nnn[nH]2)cc1', 0.258);

The measured values listed here are drawn from ChEMBL document CHEMBL3526037.
